# test.system: Gag-Pol polyprotein (Human immunodeficiency virus type 1 group M subtype B (isolate HXB2)) (UniProt P04585)
# method.summary: RNase H inhibition, HIV 1 Gag Pol polyprotein, FRET biochemical assay, screening (AID 372)
# condition.context: HIV-1 RT RNase H, FRET RNA/DNA substrate fluorescence; at 10 µM; stronger effect = higher value
About 770 (0.77%) of roughly 100,000 compounds were called active. Shown is part of a subset that was picked to be rich in actives.
Would you mind labelling by inhibition? At or over 2% is 1, under is 0.

>  <molecule>
N#C/C(=C\c1ccc(I)o1)c1ccccc1

>  <label.value>
1

$$$$
>  <molecule>
COc1ccc(NC(=O)/C(C#N)=C\c2cn(CC(=O)O)c3ccccc23)cc1

>  <label.value>
0

$$$$
>  <molecule>
O=C(Nc1ccc2oc(-c3cccc(Cl)c3)nc2c1)c1ccc2c(c1)OCCO2

>  <label.value>
1

$$$$
>  <molecule>
CCOC(=O)C1=C(C)N=c2s/c(=C\c3ccc(-c4ccc(Cl)cc4Cl)o3)c(=O)n2C1c1ccc(C)cc1 (configuration not stated)

>  <label.value>
1

$$$$
>  <molecule>
C=CCOc1cccc(/C=N/NC(=O)C(=O)Nc2ccc(C)c(C)c2)c1

>  <label.value>
0

$$$$
>  <molecule>
CCOC(=O)c1c(C)[nH]c(/C=C(/C#N)C(N)=NCc2ccccc2)c1O

>  <label.value>
1

$$$$
>  <molecule>
COc1cccc(OC)c1C(=O)Nc1cc(C)ccn1

>  <label.value>
0

$$$$
>  <molecule>
O=C(NC(=S)Nc1ccc(Cl)c([N+](=O)[O-])c1)c1ccc(-c2ccccc2)cc1

>  <label.value>
1

$$$$
>  <molecule>
O=C1N=c2ccccc2=C1c1sc(=S)[nH]c1O

>  <label.value>
1

$$$$
>  <molecule>
CCC(C)c1ccc(NC(=O)Cc2ccccc2OC)cc1 (configuration not stated)

>  <label.value>
1

$$$$
>  <molecule>
COc1ccc(CC(=O)NNC(=O)c2ccc(Cl)cc2)cc1OC

>  <label.value>
1

$$$$
>  <molecule>
Cc1ccc(C(=O)Nc2ccc(-c3nc4cc(Cl)cc(Cl)c4o3)cc2)cc1

>  <label.value>
1

$$$$
>  <molecule>
N#C/C(=C\c1cn(CC(=O)Nc2ccccc2)c2ccccc12)C(=O)Nc1ccccc1

>  <label.value>
0

$$$$
>  <molecule>
COc1ccccc1CC(=O)Nc1cccc(F)c1

>  <label.value>
0

$$$$
>  <molecule>
O=C(NCCN1CCOCC1)c1cc2nc(-c3ccc(Cl)cc3)cc(C(F)(F)F)n2n1

>  <label.value>
0

$$$$
>  <molecule>
CCOC(=O)c1ccc(NC(=O)Cc2ccccc2OC)cc1

>  <label.value>
1

$$$$
>  <molecule>
COc1cccc(OCCn2cc(C=C3C(=O)NC(=S)NC3=O)c3ccccc32)c1

>  <label.value>
1

$$$$
>  <molecule>
N#C/C(=C\c1ccc(Sc2ccccc2)o1)c1ccccc1

>  <label.value>
1

$$$$
>  <molecule>
O=C(O)Cn1cc(/C=C2\C(=O)NC(=S)N(c3ccccc3F)C2=O)c2ccccc21

>  <label.value>
1

$$$$
>  <molecule>
Cc1ccc(Sc2ccc(/C=C(\C#N)C(=O)NCc3ccccc3)o2)cc1

>  <label.value>
1

$$$$
